B1: MIA2 (parent)
chain: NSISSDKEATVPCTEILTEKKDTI

- Variants of: B1
- Protocol notes: protein stability index of a GFP-peptide fusion (GPS, HEK-293T) (PSI 1-6); higher = more stable;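 further: lentivirally expressed fusions sorted by FACS into six bins by GFP to DsRed ratio, PSI derived from sequencing read proportions per bin multiplied by bin number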
- Run conditions: c terminus: a fixed tail appended
# protein stability index per entry
Quantity measured: protein stability index

>>> assay_result("E19M")
5.08
>>> assay_result("V11L")
5.41
>>> assay_result("S4T")
5.25
>>> assay_result("T10K")
5.24
>>> assay_result("T18C")
5.05
>>> assay_result("A9H")
5.32
>>> assay_result("T14N")
5.42
>>> assay_result("A9N")
4.88
>>> assay_result("S4M")
5.43
>>> assay_result("T18S")
5.39
>>> assay_result("T23E")
5.61
>>> assay_result("T14P")
5.45
>>> assay_result("K20E")
5.53
>>> assay_result("I16H")
5.49
>>> assay_result("T18N")
5.46
>>> assay_result("S2Q")
5.33
>>> assay_result("D6P")
5.35
>>> assay_result("I3R")
5.7
>>> assay_result("I24L")
5.32
>>> assay_result("S4K")
5.29
>>> assay_result("P12S")
5.63
>>> assay_result("S2I")
5.32
>>> assay_result("A9V")
5.17
>>> assay_result("D6M")
5
>>> assay_result("A9C")
4.71
>>> assay_result("C13K")
5.4
>>> assay_result("N1E")
5.73
>>> assay_result("E15H")
5.04
>>> assay_result("T10W")
5.07
>>> assay_result("L17R")
5.45
>>> assay_result("V11A")
5.38
>>> assay_result("D6I")
4.98
>>> assay_result("E19P")
5.66
>>> assay_result("L17S")
5.57
>>> assay_result("C13H")
5.15
>>> assay_result("D22L")
4.57
>>> assay_result("K20G")
5.47
>>> assay_result("I24R")
5.36
>>> assay_result("A9L")
5.32
>>> assay_result("T10D")
5.61
>>> assay_result("I16R")
5.57
>>> assay_result("D6V")
5.14
>>> assay_result("E8V")
4.99
>>> assay_result("T10C")
5.5
>>> assay_result("S4N")
5.18
>>> assay_result("E8N")
5.31
>>> assay_result("K7C")
5.31
>>> assay_result("V11C")
4.84
>>> assay_result("I16T")
5.63
>>> assay_result("T18E")
5.63
>>> assay_result("N1A")
5.42
>>> assay_result("S5E")
5.67
>>> assay_result("I24Q")
5.61
>>> assay_result("S5I")
5.17
>>> assay_result("E19F")
4.62
>>> assay_result("N1S")
5.62
>>> assay_result("N1C")
5.27
>>> assay_result("I24S")
5.69
>>> assay_result("T14F")
4.93
>>> assay_result("L17F")
5.29
>>> assay_result("T18A")
4.93
>>> assay_result("E15G")
4.92
>>> assay_result("T18P")
5.26
>>> assay_result("T14Y")
5.1
>>> assay_result("C13G")
5.49
>>> assay_result("K21Y")
4.84
>>> assay_result("V11G")
5.07
>>> assay_result("E15F")
4.46
>>> assay_result("I16F")
5.19
>>> assay_result("K21P")
5.36
>>> assay_result("S5F")
4.94
>>> assay_result("V11R")
5.28
>>> assay_result("T14K")
5.49
>>> assay_result("T18Q")
5.4
>>> assay_result("N1T")
5.05
>>> assay_result("A9Q")
5.25
>>> assay_result("T23D")
5.17
>>> assay_result("S5W")
5.17
>>> assay_result("I16M")
5.49
>>> assay_result("L17V")
5.18
>>> assay_result("P12Y")
4.34

// provenance: the supplement of paper PMC10567573
